Tested on: Leishmania donovani
TEST_PROTOCOL: Antileishmanial activity against Leishmania donovani amastigotes infected in mouse J774A1 cells assessed as inhibition of parasite growth after 72 hrs by luciferase reporter gene assay
Assay type: functional, organism-based
CONDITION_SET: J774.A1, 72 h
pIC50: −log10 of the molar value.
ASSAY_ENDPOINT: pIC50

# LINE_NOTATION, ASSAY_SYSTEM, MEAS_VALUE
rows = [
    ("COC(=O)[C@@H]1Cc2c([nH]c3ccccc23)[C@@H](c2ccccc2Br)N1C(=O)C(=O)c1c[nH]c2ccccc12", "Leishmania donovani", 5.42),
    ("COC(=O)[C@H]1Cc2c([nH]c3ccccc23)[C@@H](c2ccc(C(C)C)cc2)N1C(=O)C(=O)c1c[nH]c2ccccc12", "Leishmania donovani", 5.17),
    ("COC(=O)[C@@H]1Cc2c([nH]c3ccccc23)[C@@H](c2ccccc2Br)N1C(=O)C(=O)c1c[nH]c2ccc(Br)cc12", "Leishmania donovani", 5.39),
]
